Assay: Metabolic stability in rat liver microsomes
Type: ADME, Microsome
Readout label: half-life
Provide a numeric answer, followed by its unit.

Ask: Data request, read-out half-life, for `Cc1cc(-n2ncc(=O)[nH]c2=O)cc(C)c1Oc1ccc(O)c(Cc2ccc(F)cc2)c1`
Result: 40 min

---

Test: Half life in human hepatocytes
Format: ADME, cell-based, Liver, Hepatocyte
Readout label: half-life (h)
Answers are plain numbers, in h.

Ask: Data request, read-out half-life, for `Cc1cc(-n2ncc(=O)[nH]c2=O)cc(C)c1Oc1ccc(O)c(Cc2ccc(F)cc2)c1`
Result: 1.98

---

Assay: Terminal half life in rat at 0.5 mg/kg, iv
Assay type: ADME, organism-based
Parameters: dose 0.5 mg/kg, route intravenous
Settings: in vivo, read-out: beta t1/2 (converted)
Readout label: half-life (h)
Numbers only, in h.

Ask: Data request, read-out half-life, for `Cc1cc(-n2ncc(=O)[nH]c2=O)cc(C)c1Oc1ccc(O)c(Cc2ccc(F)cc2)c1`
Result: 2.73

---

Assay: Drug level in bald stump-tailed monkey model after 2 months
Type: ADME, organism-based
Details: macaca arctoides, in vivo; read-out: Drug uptake
Readout label: concentration at 1461 h

Ask: Data request, read-out concentration at 1461 h, for `Cc1cc(-n2ncc(=O)[nH]c2=O)cc(C)c1Oc1ccc(O)c(Cc2ccc(F)cc2)c1`
Result: < 2 ng/mL

---

Kindly state pKi for each of the entries shown.
Target: Thyroid hormone receptor beta (Homo sapiens, UniProt P10828)
Experiment: Binding affinity to thyroid receptor beta
Give bare numbers, as −log10 of the molar value.

Past entries and their recorded results:
{"columns": ["Given smiles", "Observed measurement"],
 "data": [
  ["Cc1cc(NC(=O)CC(=O)O)cc(Cl)c1Oc1ccc(O)c(S(=O)(=O)CC2CCC2)c1", 9.30],
  ["Cc1cc(NC(=O)C(=O)O)cc(C)c1Oc1ccc(O)c2c1CCC2", 9.30],
  ["Cc1cc(-n2ncc(=O)[nH]c2=O)cc(C)c1Oc1ccc(O)c(Cc2ccc(F)cc2)c1", 9.40],
  ["O=C(c1cc(Oc2c(Cl)cc(-n3ncc(=O)[nH]c3=O)cc2Cl)ccc1O)N1CCCCC1", 9.00]
]}

Hi! Can you tell me pKi for each of these compounds?
1. O=c1cnn(-c2cc(Cl)c(Oc3ccc(O)c(Cc4ccc(F)cc4)c3)c(Cl)c2)c(=O)[nH]1
2. O=C(c1cc(Oc2c(Cl)cc(-n3ncc(=O)[nH]c3=O)cc2Cl)ccc1O)N1CCc2ccccc2C1

Result:
1: 9.29; 2: 8.70

---

Assay: Intrinsic clearance in rat
Type: ADME, organism-based
Settings: not recorded
Readout label: CLint scaled (mL/min/kg)
Numbers only, in mL/min/kg.

Ask: Data request, read-out CLint scaled, for `Cc1cc(-n2ncc(=O)[nH]c2=O)cc(C)c1Oc1ccc(O)c(Cc2ccc(F)cc2)c1`
Result: 149

---

Biological target: Thyroid hormone receptor (Homo sapiens, UniProt P10827+P10828)
Sequence (P10827 whole entry): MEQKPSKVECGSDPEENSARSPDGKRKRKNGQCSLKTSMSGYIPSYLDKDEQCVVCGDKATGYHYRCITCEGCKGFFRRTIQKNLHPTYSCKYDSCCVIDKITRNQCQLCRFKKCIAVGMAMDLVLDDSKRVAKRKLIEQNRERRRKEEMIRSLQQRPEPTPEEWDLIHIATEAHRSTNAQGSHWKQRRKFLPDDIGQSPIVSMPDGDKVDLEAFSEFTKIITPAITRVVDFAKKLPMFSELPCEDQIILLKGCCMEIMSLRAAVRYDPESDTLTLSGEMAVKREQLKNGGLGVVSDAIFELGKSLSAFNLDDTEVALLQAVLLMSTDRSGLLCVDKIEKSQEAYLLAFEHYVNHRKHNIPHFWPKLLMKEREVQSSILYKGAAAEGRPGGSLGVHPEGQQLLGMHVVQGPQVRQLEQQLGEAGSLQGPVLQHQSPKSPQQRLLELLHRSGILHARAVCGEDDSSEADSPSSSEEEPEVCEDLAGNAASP
Sequence (P10828 whole entry): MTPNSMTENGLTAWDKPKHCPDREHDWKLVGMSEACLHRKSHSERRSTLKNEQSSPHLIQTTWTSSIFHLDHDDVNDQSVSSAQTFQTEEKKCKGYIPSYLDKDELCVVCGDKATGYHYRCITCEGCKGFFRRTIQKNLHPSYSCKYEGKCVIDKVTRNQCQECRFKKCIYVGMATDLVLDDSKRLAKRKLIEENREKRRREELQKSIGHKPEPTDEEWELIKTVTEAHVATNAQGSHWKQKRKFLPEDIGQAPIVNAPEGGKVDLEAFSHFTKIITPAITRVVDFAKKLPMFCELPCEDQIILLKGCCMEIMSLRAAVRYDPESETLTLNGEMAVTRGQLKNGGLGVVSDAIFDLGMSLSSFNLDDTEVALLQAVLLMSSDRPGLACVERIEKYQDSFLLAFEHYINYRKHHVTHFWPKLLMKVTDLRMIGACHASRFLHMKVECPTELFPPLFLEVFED
Test: Binding affinity to thyroid hormone receptor in human HepG2 cells
Readout label: EC50 (nM)
One number for each entry, in nM.

Ask: Data request, read-out EC50, for `Cc1cc(-n2ncc(=O)[nH]c2=O)cc(C)c1Oc1ccc(O)c(Cc2ccc(F)cc2)c1`
Result: 0.5

---

Test: Plasma clearance in rat at 0.5 mg/kg, iv
Format: ADME, organism-based
Design: dose 0.5 mg/kg, route intravenous
Readout label: clearance
Provide a numeric answer, followed by its unit.

Ask: Data request, read-out clearance, for `Cc1cc(-n2ncc(=O)[nH]c2=O)cc(C)c1Oc1ccc(O)c(Cc2ccc(F)cc2)c1`
Result: 40 mL/min/kg

---

Test: Clearance in human blood
Format: ADME, organism-based
Readout label: clearance (mL/min/kg)
Numbers only, in mL/min/kg.

Ask: Data request, read-out clearance, for `Cc1cc(-n2ncc(=O)[nH]c2=O)cc(C)c1Oc1ccc(O)c(Cc2ccc(F)cc2)c1`
Result: 15
